experiment: Selectivity for Trypanosoma cruzi trans-sialidase mutant over human Neu2
Ratio IC50 less than 3 is Fulfilled; Ratio IC50 greater than or equal to 3 is Not fulfilled.

Threshold test, Ratio IC50 < 3: `Cc1cc(O)c2c(c1)C(=O)c1cc(O)cc(O)c1C2=O`
Not fulfilled

Threshold test, Ratio IC50 < 3: `O=c1c(O)c(-c2ccc(O)c(O)c2)oc2cc(O)cc(O)c12`
Fulfilled

Threshold test, Ratio IC50 < 3: `O=c1cc(-c2ccc(O)cc2)oc2cc(O)ccc12`
Fulfilled

Threshold test, Ratio IC50 < 3: `O=c1cc(-c2ccccc2)oc2cc(O)c(O)c(O)c12`
Fulfilled

Threshold test, Ratio IC50 < 3: `O=c1cc(-c2ccc(O)cc2)oc2cc(O)c(O)c(O)c12`
Fulfilled

Threshold test, Ratio IC50 < 3: `O=c1c(-c2ccc(O)cc2)coc2cc(O)cc(O)c12`
Fulfilled

Threshold test, Ratio IC50 < 3: `O=c1cc(-c2ccc(O)c(O)c2)oc2cc(O)cc(O)c12`
Not fulfilled

Threshold test, Ratio IC50 < 3: `O=c1cc(-c2cc(O)c(O)c(O)c2)oc2cc(O)cc(O)c12`
Not fulfilled

Threshold test, Ratio IC50 < 3: `O=c1c(O)c(-c2cc(O)c(O)c(O)c2)oc2cc(O)cc(O)c12`
Not fulfilled

Threshold test, Ratio IC50 < 3: `COc1cc(O)c2c(c1)O[C@H](c1ccc(O)cc1)CC2=O`
Fulfilled

Threshold test, Ratio IC50 < 3: `O=C(O)c1ccc2c(c1)C(=O)c1ccccc1C2=O`
Fulfilled

Threshold test, Ratio IC50 < 3: `O=C(O)c1cc(O)c2c(c1)C(=O)c1cccc(O)c1C2=O`
Not fulfilled

Threshold test, Ratio IC50 < 3: `O=c1cc(-c2ccccc2O)oc2cc(O)cc(O)c12`
Fulfilled

Threshold test, Ratio IC50 < 3: `O=c1c(O)c(-c2ccc(O)cc2)oc2cc(O)cc(O)c12`
Fulfilled

Threshold test, Ratio IC50 < 3: `O=c1cc(-c2ccc(O)cc2)oc2cc(O)cc(O)c12`
Not fulfilled

Threshold test, Ratio IC50 < 3: `O=c1cc(-c2ccccc2)oc2cc(O)cc(O)c12`
Fulfilled

Threshold test, Ratio IC50 < 3: `O=C(O)c1cc(O)c2c(c1)C(=O)c1cc(O)c(Cl)c(O)c1C2=O`
Not fulfilled

###

Can you tell me IC50 for the items I'm about to list?
experiment: Inhibition of Trypanosoma cruzi trans-sialidase containing catalytic domain (N58F, R200K) and lectin-like domain (S495 K, V496G, E520K, D593G, I597D, H599R) mutation expressed in Escherichia coli JM109 assessed as MuNANA substrate hydrolysis in presence of 0.1% Triton X-100 by discontinuous fluorimetric assay

`O=c1cc(-c2ccc(O)cc2)oc2cccc(O)c12` yielded IC50 of > 1000 µM

`O=c1cc(-c2ccc(O)cc2)oc2cc(O)ccc12` yielded IC50 of > 1000 µM

COc1ccc(-c2cc(=O)c3c(O)cc(O)cc3o2)cc1 [ACACETIN] yielded IC50 of > 1000 µM

COc1cc(O)c2c(c1)O[C@H](c1ccc(O)cc1)CC2=O [SAKURANETIN] yielded IC50 of > 1000 µM

Oc1cc(O)c2c(c1)O[C@@H](c1ccc(O)c(O)c1)[C@H](O)C2 [(-)-CATECHIN] yielded IC50 of > 1000 µM
